Test system: MDA-MB-435 melanoma
test: NCI-60 one-dose screen, 48 h
study_conditions: 10 µM unless noted
Procedure: Growth inhibition of the MDA-MB-435 human Melanoma tumor cell line is measured as a screen for anti-cancer activity. Cells are grown in 96 well plates and exposed to the test compound for 48 hours. Compounds are tested at a single concentration, which is 10^-5 M for most compounds. The reported endpoint is percent growth (GI% or GIPRCNT), where numbers from 0 - 100% represent growth inhibition, and numbers from -100% - 0 represent cell death. […]
The panel holds about 83,000 compounds, 20% with a hit somewhere; the sample as a whole holds those more often. Calls of active or inactive are those of the source. Rule for the calls: active = growth percent below 10; inactive = the rest.
Classes used: active, inactive

>  <compound>
COc1cc(Cn2c(-c3ccccc3)cc3c2-c2oncc2CC3)cc(OC)c1OC

>  <class_label>
active

$$$$
>  <compound>
COC(=O)c1cc2oc(/C=N/NC(=O)c3cc4oc(-c5cccc(C(F)(F)F)c5)cc4[nH]3)cc2n1Cc1ccccc1

>  <class_label>
inactive

$$$$
>  <compound>
CNC(=O)c1ccccc1Sc1ccc2c(/C=C/c3ccccn3)n[nH]c2c1

>  <class_label>
inactive

$$$$
>  <compound>
O=c1cc(N2CCOCC2)oc2c(-c3ccc4c(c3)OCCO4)csc12

>  <class_label>
inactive

$$$$
>  <compound>
CCN(CC)CCCC(C)Nc1cnc(C(=O)Nc2ccc(Cl)c3cccnc23)cn1 (stereo not given)

>  <class_label>
active

$$$$
